tested on: SK-MEL-2; test: NCI tumour cell line growth inhibition, 48 h
Activity calls are given as the source filed them. Rule as the data show it: active = GI50 up to about 1.1 µM and inactive = higher.
Bench note: report the call from YES = active, NO = inactive

Field: example entries. Status: answers known.
{"columns": ["compound", "class_name"],
 "data": [
  ["CC1(C)Oc2ccccc2N2O[C@@H]3C(=O)N(c4ccccc4)C(=O)[C@@H]3C21c1ccccc1 (stereo not given in full)", "NO"],
  ["COC(=O)c1cc(/C=C/C(=O)Cc2ccccc2)cn1S(=O)(=O)c1ccccc1", "NO"],
  ["CC1(O)CC(=O)c2c(cc3ccc(-c4c5c(c(O)c6c(O)cccc46)C(=O)CC(C)(O)C5)c(O)c3c2O)C1 (stereo not given)", "YES"]
]}

Q. What did the test return for CC1=CC(=O)C(C)(C2=NC(C)(C)CO2)c2ccccc21 (stereo not given) ?
A. NO

Q. Hi, sorry to bother you, what did the test record for O=c1[nH]c(S)nc2c1sc(=S)n2-c1ccccc1 ?
A. NO

Q. Check the results log: what was the call for CC(C)[Si]1(C(C)C)OCC2OC3(CO)C(Oc4nc(=O)ccn43)C2O[Si](C(C)C)(C(C)C)O1 (stereo not given) ?
A. NO

Q. Look up the recorded call for CC(CCOc1c2ccoc2cc2oc(=O)ccc12)C1=CC(=O)C(C)(C)O1 (stereo not given) in this test.
A. NO

Q. Hi, do you know how Cc1cc(C)c2c(=O)cc(-c3ccccc3)[nH]c2c1 came out in this test?
A. NO

Q. // outcome(item) with item = CC(=O)NNc1nc(C)c(C(/C=C/c2ccc([N+](=O)[O-])cc2)=N/NC(N)=O)s1
A. NO

Q. Please indicate how the test categorized CCC12CCC(O)C1N(C)CCC2Sc1ccccc1 (stereo not given) .
A. NO

###

system: HCC 2998; test: NCI tumour cell line growth inhibition, 48 h
Calls of active or inactive are those of the source. Cut-off read from the data, not from the text of the source: active = GI50 up to about 1.1 µM and inactive = higher.
observable: GI50

The examples below pair each entry with its known result.
{"columns": ["compound", "experimental_target", "GI50"],
 "data": [
  ["CN(C)CC1CC/C(=C\\c2ccc(Cl)cc2)C1=O (configuration not stated)", "HCC 2998", "4.69 µM (inactive)"],
  ["O=[N+]([O-])c1cccc2nccc(NCCN3CCOCC3)c12", "HCC 2998", "11.5 µM (inactive)"],
  ["CC1CC(c2ccc(Cl)c(Cl)c2)=Nc2ccccc2S1 (configuration not stated)", "HCC 2998", "> 100 µM (inactive)"],
  ["CN1CCc2cc(O)c3cc2C1Cc1ccc(cc1)Oc1cc(ccc1O)CC1c2c(cc4c(c2O3)OCO4)CCN1C (configuration not stated)", "HCC 2998", "19.5 µM (inactive)"],
  ["O=CC[C@H]1CCc2ccccc2C12CCC(=O)CC2", "HCC 2998", "> 100 µM (inactive)"],
  ["CC(CCOc1c2ccoc2cc2oc(=O)ccc12)C1=CC(=O)C(C)(C)O1 (configuration not stated)", "HCC 2998", "> 100 µM (inactive)"],
  ["O=C(NCCN(CCNC(=O)c1cccc(=O)n1O)CCN(CCNC(=O)c1cccc(=O)n1O)CCNC(=O)c1cccc(=O)n1O)c1cccc(=O)n1O", "HCC 2998", "> 100 µM (inactive)"],
  ["Cc1c2c(cc3c(=O)ccn(CCN(C)C)c13)c(=O)ccn2CCN(C)C", "HCC 2998", "6.19 µM (inactive)"],
  ["CC(=O)Nc1ccc(C2C(C(=O)Nc3ccccc3)=C(C)NC(C)=C2C(=O)Nc2ccccc2)cc1", "HCC 2998", "> 100 µM (inactive)"],
  ["CC1=NOC(=O)/C1=C/c1ccc([N+](=O)[O-])cc1", "HCC 2998", "> 100 µM (inactive)"]
]}

Q. Need GI50, item COc1ncc(/C=C2\OC(=O)c3ccccc32)c(OC)n1
A. 76 µM (inactive)

Q. So what's the measured GI50 for this one? CC(=O)Nc1c(S(=O)(=O)c2ccccc2)c(C)c(C)n1CCN(C)C
A. > 100 µM (inactive)

Q. Query: GI50; subject: N#CCCC1(CCC#N)CCCCCCC(CCC#N)(CCC#N)C(=O)C1=O
A. 67.1 µM (inactive)

Q. I'd like to know its GI50. The compound in question is O=C(c1cscc1CCc1ccccc1)c1cscc1CCc1ccccc1
A. > 100 µM (inactive)

Q. Item CC1CC2C3CCC4=CC(=O)C=CC4(C)C3(F)C(O)CC2(C)C1(O)C(=O)CO.Cc1nnc(NS(=O)(=O)c2ccc(/N=N/c3cc(/N=N/c4ccc(S(=O)(=O)Nc5nnc(C)s5)cc4)c4c(NC(=O)C(Cl)Cl)cccc4c3OC(=O)C(Cl)Cl)cc2)s1 has what recorded GI50?
A. 21.3 µM (inactive)

Q. Report GI50 for CCCCc1nccc2c(C)c3[nH]c4ccccc4c3cc12 please.
A. 3.44 µM (inactive)

Q. Can you share its GI50? I mean this compound: N=C(N)SCc1ccc2c(c1)Sc1ccccc1O2
A. 2.35 µM (inactive)

Q. Tell me the measured GI50 of Cc1ccc(C2C(Cl)C(=O)N2NC(=O)c2ccc(N)cc2)cc1 (configuration not stated) , please.
A. > 100 µM (inactive)

Q. May I ask what GI50 has been recorded for COc1c(/C=C/C=O)cc2c(c1OC)OCO2 ?
A. 29.4 µM (inactive)

Q. # get_value(readout='GI50', item= Cc1cc(N)c2cc(NC(=O)Nc3ccc4nc(C)cc(N)c4c3)ccc2n1 )
A. > 100 µM (inactive)

Q. Fill in the blank: the reported GI50 of CSc1ccc(/C=C2\N=C(c3ccccc3)N(NC(=O)c3c(Cl)c(Cl)c(Cl)c(Cl)c3-c3nc4ccccc4[nH]3)C2=O)cc1 is ____.
A. 9.59 µM (inactive)

Q. Request the reported GI50 associated with C[C@]12CC(c3ccccc3O1)C(C(=O)NC13CC4CC(CC(C4)C1)C3)C(=O)N2 (some centres not stated)
A. 29 µM (inactive)
